- SYSTEM: UniProt:P00352
- Sequence (P00352 whole entry): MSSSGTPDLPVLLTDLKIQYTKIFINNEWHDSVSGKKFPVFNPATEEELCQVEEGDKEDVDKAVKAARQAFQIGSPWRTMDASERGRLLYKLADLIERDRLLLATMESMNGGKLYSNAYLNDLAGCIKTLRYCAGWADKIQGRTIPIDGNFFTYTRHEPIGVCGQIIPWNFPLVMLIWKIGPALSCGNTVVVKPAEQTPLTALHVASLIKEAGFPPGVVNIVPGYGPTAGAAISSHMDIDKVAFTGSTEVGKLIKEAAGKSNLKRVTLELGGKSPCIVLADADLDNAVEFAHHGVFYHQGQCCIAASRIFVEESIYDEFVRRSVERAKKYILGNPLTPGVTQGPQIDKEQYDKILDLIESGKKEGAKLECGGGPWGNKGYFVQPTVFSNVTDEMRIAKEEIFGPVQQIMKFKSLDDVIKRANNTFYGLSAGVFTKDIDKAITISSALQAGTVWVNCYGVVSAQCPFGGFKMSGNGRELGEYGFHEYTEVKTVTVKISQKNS
- EXPERIMENTAL_DETAILS: Cell-based enzyme assay, retinoic acid production in ALDH1A1/H1299 cells
- Method: ALDH1A1 cDNA clone was purchased transfection-ready, and ALDH1A2 full-length cDNA was subcloned into pcDNA3, a mammalian expression vector. ALDH1A1 and ALDH1A2 were transfected into H1299 cells (CRL5803, ATCC) using Lipofectamine 3000 (Invitrogen) following the manufacturer's instructions. Stably transfected cells were selected with G418 (1.2 mg/ml) and referred to as ALDH1A1/H1299 and ALDH1A2/H1299. For the cell-based enzyme assays, […]
READOUT_KIND: EC50

Returns the measured EC50 for the input molecule. Input: CN(C)c1ccc(C(=O)N2CCN(c3ccc([N+](=O)[O-])c(N4CCCC4)c3)CC2)cc1
< 0.5 µM

Look up EC50 for this molecule: Cc1cc(C(=O)N2CCN(c3ccc([N+](=O)[O-])c(N4CCCC4)c3)CC2)sc1C
> 0.5 µM

EC50 for CC(=O)Nc1ccsc1C(=O)N1CCN(c2ccc([N+](=O)[O-])c(N3CCCC3)c2)CC1 ?
0.413 µM
